For each record, write down the corresponding Population Mitochondria Different-Phenotype (%).
- System: HEK-293T
- test_summary: Multiplex assay against HEK293T
- Format: toxicity, cell-based
- study_conditions: human, 48 h, 10 µM, compound concentration 10 uM, replicate 1
State just the number; it will be interpreted in %.

IN: What does the record list as Population Mitochondria Different-Phenotype (%) for O=C(c1cc2c(cc1F)OC(c1ccc(F)cc1)(c1ccc(Cl)cc1Cl)O2)N1CCOCC1 (stereo not drawn) ?
OUT: 33

IN: # query: Population Mitochondria Different-Phenotype (%) of entry `CC(C)NC(=O)N1CC[C@H](NC2=Nc3cc(F)ccc3N(CC(F)F)c3ccc(Cl)cc32)C1`
OUT: 74

IN: Find the recorded Population Mitochondria Different-Phenotype (%) belonging to CC1=C(C(=O)Nc2cc3cn[nH]c3cc2F)C(c2ccc(C(F)(F)F)cc2)CC(=O)N1 (stereo not drawn) and report it.
OUT: 29

IN: Field request: Population Mitochondria Different-Phenotype (%) | item: `CN1CCN(Cc2ccc(Nc3ncc(Cl)c(Nc4ccccc4S(=O)(=O)N(C)C)n3)cc2)CC1`
OUT: 83

IN: Find the recorded Population Mitochondria Different-Phenotype (%) belonging to `CCOC(=O)Nc1cc(-c2ccc(C)c(NS(C)(=O)=O)c2)nn2c(C)nnc12` and report it.
OUT: 4

IN: Data request, read-out Population Mitochondria Different-Phenotype (%), for `O=c1cc(N2CCOCC2)oc2c(-c3cccc4c3sc3ccccc34)cccc12`
OUT: 100

IN: Entry `CCCSc1nc(N[C@@H]2C[C@H]2c2ccc(F)c(F)c2)c2nnn([C@@H]3C[C@H](OCCO)[C@@H](O)[C@H]3O)c2n1` has what Population Mitochondria Different-Phenotype (%)?
OUT: 75

IN: # lookup: Population Mitochondria Different-Phenotype (%) of `COc1cc(Nc2nccc(-c3cnn4nc(OC)ccc34)n2)cc(C(F)(F)F)c1`
OUT: 86
